- System: U2OS
- Assay notes: Incucyte cell viability with U2OS; further: unitless GR value; below 1 slowed growth and below 0 cell loss
- Assay type: toxicity, cell-based
- Experimental conditions: human, 24 h, 10 µM, compound concentration 10 uM, replicate number 1, timepoint 24 hours
I'd appreciate it if you could supply Growth Rate values for the items below.
Give your answer as a number; write no unit.

input: Item: `CC[C@H]1CN2CCc3cc(OC)c(OC)cc3[C@@H]2C[C@@H]1C[C@H]1NCCc2cc(OC)c(OC)cc21` Test system: U2OS Read-out: Growth Rate Value: ?
output: 0

input: Return Growth Rate measured with U2OS given this compound: `CCC(=O)NCC[C@@H]1CCc2ccc3c(c21)CCO3`
output: 0.82

input: What Growth Rate appears in the records for this compound with U2OS? `O=C(Nc1cc(C(F)(F)F)ccc1N1CCCCC1)c1ccncc1`
output: 0.81

input: Reported Growth Rate for U2OS, given Br.CS(=O)(=O)Nc1c(O)ccc2c1CCCC2C1=NCCN1 (stereo unspecified) ?
output: 0.86

input: Quick check: Growth Rate on U2OS, item `COCCN1CCC(c2cc(CN(C)C(=O)c3cccc(Oc4ccccc4)c3)ccn2)CC1` ?
output: 0.93

input: Fill in the recorded Growth Rate for this compound, with U2OS as test system: COc1cc2nc(N3CCN(C(=O)C4CCCO4)CC3)nc(N)c2cc1OC.Cl.O.O (stereo unspecified) [TERAZOSIN HYDROCHLORIDE]
output: 0.99

###

- System: U2OS
- Assay notes: Incucyte cell viability with U2OS; further: unitless GR value; below 1 slowed growth and below 0 cell loss
- Type: toxicity, cell-based
- Experimental conditions: human, 6 h, 10 µM, compound concentration 10 uM, replicate number 2, timepoint 6 hours
Give measured Growth Rate for each item. Keep answers brief.

input: I'd like to know its Growth Rate. The compound in question is O=C(O)CCC/C=C\CC1C(O)CC(O)C1/C=C/C(O)COc1cccc(Cl)c1 (centres undefined)
output: 0.74

input: Query (compound): `COc1cc2c(Oc3ccc(NC(=O)C4(C(=O)Nc5ccc(F)cc5)CC4)cc3F)ccnc2cc1OCCCN1CCOCC1` ; field requested: Growth Rate
output: -0.08

input: Field request: Growth Rate | item: `OCCN1CCN(CCCN2c3ccccc3Sc3ccc(Cl)cc32)CC1`
output: 0.28

input: Look at this compound and give its reported Growth Rate. `O=C(O)c1ccccc1S(=O)(=O)NCCCCN1C(=O)c2cccc3cccc(c23)C1=O`
output: 0.12

input: Consider the compound `COc1ncc2cc(C(=O)Nc3cc(C(=O)NCc4cccc(Cl)c4)ccc3Cl)c(=O)[nH]c2n1` and give its measured Growth Rate.
output: 0.28

input: Consider the compound `N[C@@]1(C(=O)O)CC[C@H]2[C@H](C(=O)O)[C@H]21` and give its measured Growth Rate.
output: 0.76

input: For `C[C@@H]1C[C@H]2[C@@H]3CCC4=CC(=O)C=C[C@]4(C)[C@@]3(F)[C@@H](O)C[C@]2(C)[C@@]1(O)C(=O)CO` , what is its reported Growth Rate?
output: 0.65

input: Request the reported Growth Rate associated with `CNCCN1CCC(c2cc(CN(C)C(=O)c3cccc(Oc4ccccc4)c3)ccn2)CC1`
output: 0.98

input: Form field: reported Growth Rate of `C[C@@H](OC[C@@]1(c2ccccc2)CC[C@]2(CCC(=O)N2)CN1)c1cc(C(F)(F)F)cc(C(F)(F)F)c1`
output: 0.54

input: // lookup Growth Rate for C[S+](C)[O-] [DIMETHYL SULFOXIDE]
output: 0.93

input: Which Growth Rate reading was recorded for the compound `C[C@H](CCC(=O)O)[C@H]1CC[C@H]2[C@@H]3CC[C@@H]4C[C@H](O)CC[C@]4(C)[C@H]3CC[C@]12C` ?
output: 0.51

input: Entry `CSCC[C@H](NC(=O)[C@@H]1CCCN1C(=O)CNC(=O)[C@H](CCCCN)NC(=O)[C@H](Cc1cnc[nH]1)NC(=O)[C@H](CO)NC(=O)[C@H](CC(C)C)NC(=O)[C@H](CCCNC(=N)N)NC(=O)[C@@H]1CCCN1C(=O)[C@H](CCCNC(=N)N)NC(=O)[C@@H](N)CCC(N)=O)C(=O)N1CCC[C@H]1C(=O)N[C@@H](Cc1ccccc1)C(=O)O` : reported Growth Rate = ?
output: 0.73

input: Reported Growth Rate for `CS(=O)(=O)c1ccc(C(=O)Nc2ccc(Cl)c(-c3ccccn3)c2)c(Cl)c1` : what is it?
output: 0.8

input: Quick one: Growth Rate for `CC(=O)O[C@H]1C(=O)[C@@]2(C)[C@H]([C@H](OC(=O)c3ccccc3)[C@]3(O)C[C@H](OC(=O)[C@H](O)[C@@H](NC(=O)c4ccccc4)c4ccccc4)C(C)=C1C3(C)C)[C@]1(OC(C)=O)CO[C@@H]1C[C@@H]2O` ?
output: -0.14

###

Answer each item with its documented Growth Rate.
- Tested on: U2OS
- Assay notes: Incucyte cell viability with U2OS; further: unitless GR value; below 1 slowed growth and below 0 cell loss
- Format: toxicity, cell-based
- Experimental conditions: human, 18 h, 10 µM, compound concentration 10 uM, replicate number 1, timepoint 18 hours
Where a SMILES comes first, the peptide text is derived from it. Bridges are numbered along the chain shown (N, C = ends). [ ]: non-standard residue; d: D form. Orn = NCCC[C@H](N)C(=O)O; Mpa = O=C(O)CCS
// keep it numeric: no unit symbol after the value

input: Can you share its Growth Rate? I mean this compound: `COc1c(C)cc(NC(=O)c2nn(Cc3ccc(F)cc3)c3c2CN(C(=O)c2ccc[nH]2)C[C@]3(C)C(N)=O)cc1C`
output: 0.61

input: Query: Growth Rate; subject: CCOc1ccc(C[C@H]2NC(=O)CCSSC[C@@H](C(=O)N3CCC[C@H]3C(=O)N[C@@H](CCCN)C(=O)NCC(N)=O)NC(=O)[C@H](CC(N)=O)NC(=O)[C@H]([C@@H](C)O)NC(=O)[C@H]([C@@H](C)CC)NC2=O)cc1 [ATOSIBAN] ([Mpa][dY](Et)ITNCP[Orn]G-NH2; disulfide 1-6)
output: 0.79

input: Look up Growth Rate for this compound: `COc1ccc2cc(S(=O)(=O)N[C@H](CC(=O)N[C@H](Cc3ccc(CN4[C@H](C)CCC[C@@H]4C)cc3)C(=O)N(C)C(C)C)c3ccc4c(c3)OCO4)ccc2c1.Cl`
output: 0.67

input: # input compound: `CC(=O)c1cc(-c2ccccc2OCC2CC2)c2ncccn12` ; wanted: its Growth Rate
output: 0.98

input: Field request: Growth Rate | item: CN1CCN2c3ccccc3Cc3ccccc3C2C1.Cl (centres undefined) [MIANSERIN HYDROCHLORIDE]
output: 0.96

input: Entry under review: `COc1ccc(NC(=O)c2ccc(-c3ccc(-c4noc(C)n4)cc3C)cc2)cc1OCCN(C)C.Cl` . Reported Growth Rate?
output: -0.17

input: So what does the record say about Growth Rate for `Cl.O=C(O)c1cc(-c2ccc(C3CCNCC3)cc2)c2ccc(-c3ccc(C(F)(F)F)cc3)cc2c1` ?
output: 0.6

input: Dear colleague, I am looking for the recorded Growth Rate of the following compound: `O=C1NCc2ccc3c(-c4cccc(Cl)c4)c[nH]c3c21`
output: 0.03

input: Value lookup for Growth Rate; key = COc1cc2nc(N3CCN(C(=O)C4CCCO4)CC3)nc(N)c2cc1OC.Cl.O.O (centres undefined) [TERAZOSIN HYDROCHLORIDE]
output: 0.88

input: May I ask what Growth Rate has been recorded for `Cc1nc[nH]c1CCN.Cl` ?
output: 0.91

input: Need Growth Rate, item CN[C@@H]1CCc2[nH]c3ccc(C(N)=O)cc3c2C1.O.O=C(O)CCC(=O)O [FROVATRIPTAN SUCCINATE]
output: 0.74

input: Which Growth Rate is reported for this compound? COc1ccc2c(c1)C(C(=O)N(Cc1ccc(N(C)C)cc1)c1ccc(C(C)C)cc1)CCC2.Cl (centres undefined)
output: 0.73

input: For the compound shown here, `CN[C@@H]1Cc2cccc3[nH]c(=O)n(c23)C1.O=C(O)/C=C\C(=O)O` , give the reported Growth Rate.
output: 0.71

input: Data request, read-out Growth Rate, for `Cc1ccccc1N1CCN(S(=O)(=O)C[C@]23CC[C@H](C[C@@H]2NC(=O)[C@@H](N)CCS(C)(=O)=O)C3(C)C)CC1.Cl`
output: 0.77

input: Recorded Growth Rate of Cc1ccc(OCC(O)C(C)NC(C)C)c2c1CCC2.Cl (centres undefined) , please.
output: 0.98

input: # Growth Rate lookup, item `Cc1nn(C)c(C)c1-c1cccc2c1CC[C@H](N(C)C)C2`
output: 0.69

input: Query: Growth Rate; subject: OCc1cc(C(O)CNCCCCCCOCCCCc2ccccc2)ccc1O (centres undefined)
output: 0.81

input: Data request, read-out Growth Rate, for `CC[C@H](Nc1ncnc2[nH]cnc12)c1nc2cccc(F)c2c(=O)n1-c1ccccc1`
output: 0.44

input: Given `COc1cc(Nc2ncc3c(n2)-c2ccc(Cl)cc2C(c2c(F)cccc2OC)=NC3)ccc1C(=O)O` , state its recorded Growth Rate.
output: 0.19
